- assay method text: Therapeutic index, ratio of IC50 for rat L6 cells to IC50 for Leishmania donovani
- Type: cell-based
- condition set: read-out: Ratio IC50
Known selectivity ratio of a selection of compounds
// return just the number, without any unit appended

Some entries whose results are on file:
[[record]]
compound = "COc1cc(OC)c2c(c1I)CC(C)(C)N(Cc1ccccc1)C2"
result_value = 64.5

[[record]]
compound = "COc1cc(OC)c2c(c1Br)CC(C)(C)N=C2C"
result_value = 152

[[record]]
compound = "COc1cc(O)cc2c1CN(Cc1ccccc1)C(C)(C)C2"
result_value = 153

[[record]]
compound = "COc1ccc(I)c2c1CN(Cc1ccccc1)C(C)(C)C2"
result_value = 7.8

[[record]]
compound = "COc1cc(OC)c2c(c1Br)CC(C)(C)N(Cc1ccccc1)C2"
result_value = 200


Data request: Can you share its selectivity ratio? I mean this compound: `COc1cc(OC)c(-c2ccc(O)c3ccccc23)c2c1CNC(C)(C)C2`
Data returned: 24.1

Data request: Item: CCN(CC)CCCC(C)Nc1ccnc2cc(Cl)ccc12 (stereo not given)
Data returned: 1090
